Below, each entry is listed with its recorded z-score.
# assay_name: splicing luciferase reporter signal modulators, primary screen, spliceosome inhibition project, cell-based, HEK293, splice +/- reporter (AID 1101);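 note: HEK293 cells carrying a splicing-competent luciferase reporter gene; test concentration not given here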
# run_parameters: luminescence, 24 h, higher = more signal, called active from +8 up or from −8 down
value_kind: z-score

{"compound": "O=C1O[C@H](c2ccccc2)[C@H](c2ccccc2)N2[C@H]1[C@@H](C(=O)NC[C@H](O)c1ccccc1)[C@]1(C(=O)Nc3ccc(C#CC4=CCCCC4)cc31)[C@H]2c1ccc(OCCO)cc1", "value_kind": "z-score", "recorded_number": -1.33}
{"compound": "O=C(NCc1ccccc1)c1ccc(Br)cc1[N+](=O)[O-]", "value_kind": "z-score", "recorded_number": 0.628}
{"compound": "CCC(=O)[C@]12O[C@@]3([C@@H]4C(=O)OCC[C@@H]41)N(Cc1ccccc1)C(C)=C(C(=O)OC)[C@@H](c1ccccc1)N3C2=O", "value_kind": "z-score", "recorded_number": -1.15}
{"compound": "CCCC[C@@H]1C[C@H]1[C@@H](NC(=O)c1cccs1)c1ccc(Cl)cc1", "value_kind": "z-score", "recorded_number": -2.23}
{"compound": "CO[C@H]1O[C@H](CO)[C@@H](OC(=O)Nc2ccc3c(c2)OCO3)[C@H](OC(=O)Nc2ccccc2)[C@@H]1OC(=O)Nc1ccccc1", "value_kind": "z-score", "recorded_number": -0.788}
{"compound": "COc1ccc(NN2C(C(O)c3cc(OC)c(OC)c(OC)c3)C=CC3C(=O)N(C4CCCCC4)C(=O)C32)cc1 (stereo not given)", "value_kind": "z-score", "recorded_number": -0.617}
{"compound": "O=C1c2ccccc2[C@](Cc2ccccc2I)(C(=O)NCC(F)(F)F)[C@H](c2ccc(CO)cc2)N1Cc1ccccc1C(F)(F)F", "value_kind": "z-score", "recorded_number": 0.133}
{"compound": "CCC#CCN(Cc1ccccc1Br)[C@H](/C=C/c1ccccc1)[C@@H](O)Cc1ccccc1", "value_kind": "z-score", "recorded_number": -1.89}
{"compound": "COc1cc2c(cc1OC)CN(C(=O)[C@@H]1[C@H]3C(=O)O[C@H](c4ccccc4)[C@H](c4ccccc4)N3[C@H](c3ccccc3OCCO)[C@@]13C(=O)Nc1ccccc13)CC2", "value_kind": "z-score", "recorded_number": -0.239}
{"compound": "CCCNC(=O)[C@@H]1c2ccccc2C(=O)N(Cc2cc(F)cc(C(F)(F)F)c2)[C@H]1c1ccc(CO)cc1", "value_kind": "z-score", "recorded_number": -1.26}
{"compound": "CC(C)N1CC=CC23O[C@@H]4/C=C\\CCCOC(=O)C4[C@H]2C(=O)N(CCO)[C@@H]3C1=O (stereo not given in full)", "value_kind": "z-score", "recorded_number": -1.84}
{"compound": "CCCNC(=O)[C@@]1(Sc2ccc(C)cc2)CC(=O)N(Cc2ccccc2Cl)[C@@H]1c1ccc(CO)cc1", "value_kind": "z-score", "recorded_number": -2.31}
{"compound": "C=CC[C@]1(C(=O)OC)N=C(c2ccc(OCCCO)cc2)O[C@H]1c1ccccc1CN=[N+]=[N-]", "value_kind": "z-score", "recorded_number": -1.4}
{"compound": "COCCOC(=O)N1C(=O)[C@@]2(c3cc(C#CCNC(N)=O)ccc31)[C@H](C(=O)N1CCCCCCC1)[C@H]1C(=O)O[C@H](c3ccccc3)[C@H](c3ccccc3)N1[C@@H]2c1ccccc1OCCO", "value_kind": "z-score", "recorded_number": -0.12}
{"compound": "CCOC(=O)C1=CC[C@@H](c2ccc(-c3ccc(OCc4ccccc4)cc3)c(OC)c2)N(S(=O)(=O)c2ccc(C)cc2)[C@H]1c1ccccc1", "value_kind": "z-score", "recorded_number": -1.44}

meta.source: PubChem BioAssay
